# tested-target: HIV-1 protease (Human immunodeficiency virus type 1 group M subtype B)
# protocol-summary: Inhibition constants against HIV-1 protease (method of Pennington et al.)
# Assay type: biochemical
# protocol-conditions: HIV-1 protease; read-out: Ki value
Classification by Ki | ranges: low interval = under 2 nM, middle interval = from 2 nM up to 20 nM, high interval = 20 nM and over

See these solved cases before continuing.
INSERT INTO assay_data (compound, category_label) VALUES
  ('C=C(COC)COC(=O)N[C@@H](Cc1ccccc1)[C@H](O)CN(CC(C)C)S(=O)(=O)c1ccc(NC(C)=O)cc1', 'low interval'),
  ('CC(=O)Nc1cc(S(=O)(=O)N[C@@H](Cc2ccccc2)[C@H](O)CN(CC(C)C)S(=O)(=O)c2ccc(F)c(NC(C)=O)c2)ccc1F', 'high interval'),
  ('O=C(N[C@@H](Cc1ccccc1)[C@H](O)CN(CC1CCCC1)S(=O)(=O)c1ccc2c(c1)CCO2)O[C@H]1CCOC1', 'low interval'),
  ('O=C(N[C@@H](Cc1ccccc1)[C@H](O)CN(CC1CCCC1)S(=O)(=O)c1ccc(Cl)cc1)OCc1cccnc1', 'low interval'),
  ('CC(C)CN(C[C@@H](O)[C@H](Cc1ccccc1)NC(=O)OCc1ccccc1)S(=O)(=O)c1ccc(F)cc1', 'low interval'),
  ('CC(=O)Nc1ccc(S(=O)(=O)N(CC2CCCO2)CC(O)C(Cc2ccccc2)NC(=O)OC2CCOC2)cc1 (centres unmarked)', 'high interval');

Band for the recorded Ki of CC(C)(C)OC(=O)N[C@@H](Cc1ccccc1)[C@H](O)CN(CC1CC1)S(=O)(=O)c1ccc(F)cc1 ?
middle interval

# bin lookup: classify CC(C)CN(C[C@@H](O)[C@H](Cc1ccccc1)NC(=O)O[C@H]1CCOC1)S(=O)(=O)c1cc(Cl)c(Cl)s1 by its Ki
low interval
